- measuredOn: Solute carrier organic anion transporter family member 1B3 (Homo sapiens, UniProt Q9NPD5)
- Sequence (Q9NPD5 whole entry): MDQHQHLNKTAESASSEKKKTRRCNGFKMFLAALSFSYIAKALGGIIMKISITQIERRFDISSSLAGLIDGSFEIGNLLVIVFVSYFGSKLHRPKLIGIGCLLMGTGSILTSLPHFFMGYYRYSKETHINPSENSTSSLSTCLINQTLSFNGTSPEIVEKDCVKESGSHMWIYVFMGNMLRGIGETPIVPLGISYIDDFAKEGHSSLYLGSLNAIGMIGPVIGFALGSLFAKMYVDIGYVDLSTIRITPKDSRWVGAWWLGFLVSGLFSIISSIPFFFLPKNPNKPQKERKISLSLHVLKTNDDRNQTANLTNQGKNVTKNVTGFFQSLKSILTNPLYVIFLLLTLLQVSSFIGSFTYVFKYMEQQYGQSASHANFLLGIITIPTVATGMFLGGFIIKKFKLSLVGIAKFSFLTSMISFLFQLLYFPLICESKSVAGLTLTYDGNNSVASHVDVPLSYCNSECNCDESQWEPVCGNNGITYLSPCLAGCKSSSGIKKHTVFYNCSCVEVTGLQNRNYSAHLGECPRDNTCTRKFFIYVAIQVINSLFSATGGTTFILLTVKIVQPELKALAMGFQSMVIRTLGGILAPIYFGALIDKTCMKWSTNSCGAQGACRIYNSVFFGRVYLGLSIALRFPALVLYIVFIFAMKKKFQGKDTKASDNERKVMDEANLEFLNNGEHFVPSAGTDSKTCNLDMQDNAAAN
- measurementSetup: chinese hamster, cho, 10 µM
propertyMeasured: residual activity (%)
Write down the numeric answer in % and omit the unit.

Observe how each entry below is paired with its result.
compound	propertyMeasured	obsValue
CC(=O)/N=c1/sc(S(N)(=O)=O)nn1C [METHAZOLAMIDE]	residual activity	93.09
COc1cc([C@@H]2c3cc4c(c(O)c3C[C@H]3COC(=O)[C@@H]32)OCO4)cc(OC)c1OC	residual activity	101.7
c1ccc2c3c([nH]c2c1)CNCC3	residual activity	98.72
CCOc1ccc(C(=O)c2ccc(OC)c(O)c2O)cc1	residual activity	102.2
CC(=O)Oc1ccccc1C(=O)O	residual activity	96.37
CC(C)Nc1nc(Cl)nc(NC(C)C)n1	residual activity	91.55
COc1cccc2c1CCC1CC(=O)CC[C@]21C (stereo partly drawn)	residual activity	100.9

We next turn to a different compound, shown below.
Lab note: compound CO[C@H]1C[C@H](O[C@H]2[C@H](C)[C@@H](O[C@@H]3O[C@H](C)C[C@H](N(C)C)[C@H]3O)[C@@H](C)C[C@@]3(CO3)C(=O)[C@H](C)[C@@H](O)[C@@H](C)[C@@H](C)OC(=O)[C@@H]2C)O[C@@H](C)[C@@H]1O.O=P(O)(O)O [OLEANDOMYCIN PHOSPHATE] tested on Solute carrier organic anion transporter family member 1B3 (Homo sapiens, UniProt Q9NPD5); recorded residual activity was 105.8
